- tested system: F508delCFTR (Homo sapiens, UniProt P13569, DEL508-508)
- Construct: expressed in transfected cells; host or cells: CFBE41o- human lung derived epithelial cells (CFBE41o-F508delCFTR-HRP), doxycycline-inducible
- Sequence (P13569 with tags, fused parts or gaps DEL508-508): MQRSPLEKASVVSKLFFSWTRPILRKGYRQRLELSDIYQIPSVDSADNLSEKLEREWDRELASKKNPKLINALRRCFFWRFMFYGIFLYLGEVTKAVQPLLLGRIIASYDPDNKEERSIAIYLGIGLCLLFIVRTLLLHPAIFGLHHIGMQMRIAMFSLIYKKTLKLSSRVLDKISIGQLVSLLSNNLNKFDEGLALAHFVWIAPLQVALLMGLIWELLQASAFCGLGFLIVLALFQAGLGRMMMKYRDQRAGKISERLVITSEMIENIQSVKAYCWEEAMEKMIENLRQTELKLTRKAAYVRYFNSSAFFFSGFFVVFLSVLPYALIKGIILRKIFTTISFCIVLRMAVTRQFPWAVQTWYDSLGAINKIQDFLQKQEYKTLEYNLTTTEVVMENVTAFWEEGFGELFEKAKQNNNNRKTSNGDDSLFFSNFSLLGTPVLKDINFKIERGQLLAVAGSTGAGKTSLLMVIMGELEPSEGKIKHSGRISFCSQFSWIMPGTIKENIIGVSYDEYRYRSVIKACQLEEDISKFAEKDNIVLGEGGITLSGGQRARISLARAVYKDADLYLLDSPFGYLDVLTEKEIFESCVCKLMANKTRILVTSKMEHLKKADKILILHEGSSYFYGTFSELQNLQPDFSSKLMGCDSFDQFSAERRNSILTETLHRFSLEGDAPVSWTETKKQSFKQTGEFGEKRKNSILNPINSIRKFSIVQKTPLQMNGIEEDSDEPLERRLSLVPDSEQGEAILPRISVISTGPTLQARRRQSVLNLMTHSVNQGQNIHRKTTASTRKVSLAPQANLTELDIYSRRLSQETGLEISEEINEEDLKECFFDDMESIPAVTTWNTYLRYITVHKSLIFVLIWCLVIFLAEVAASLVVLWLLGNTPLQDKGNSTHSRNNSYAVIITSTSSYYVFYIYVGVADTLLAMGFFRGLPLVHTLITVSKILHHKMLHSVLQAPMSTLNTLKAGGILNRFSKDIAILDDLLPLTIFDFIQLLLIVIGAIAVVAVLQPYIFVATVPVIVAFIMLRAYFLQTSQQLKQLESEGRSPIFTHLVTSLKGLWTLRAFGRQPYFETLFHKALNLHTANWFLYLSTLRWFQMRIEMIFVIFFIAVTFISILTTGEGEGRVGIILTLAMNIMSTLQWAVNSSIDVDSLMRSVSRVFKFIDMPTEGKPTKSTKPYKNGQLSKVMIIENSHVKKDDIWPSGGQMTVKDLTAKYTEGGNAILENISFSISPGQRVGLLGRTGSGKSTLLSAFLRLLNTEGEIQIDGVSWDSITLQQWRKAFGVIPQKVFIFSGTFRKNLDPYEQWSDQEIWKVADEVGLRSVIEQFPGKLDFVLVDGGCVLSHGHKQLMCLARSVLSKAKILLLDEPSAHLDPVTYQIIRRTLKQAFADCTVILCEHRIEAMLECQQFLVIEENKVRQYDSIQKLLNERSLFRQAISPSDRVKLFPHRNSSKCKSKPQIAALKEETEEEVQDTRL
- assay notes: Cell Surface Expression-Horse Radish Peroxidase (CSE-HRP) Assay
- Type: cell-based
- stated conditions: with co-corrector; maximum at any tested concentration
measured parameter: Maximum % activity (with co-corrector)

Consider the worked cases shown below.
compound	measured parameter	reported result
Cc1ccc(O[C@H]2CCOC2)c(C2(C(=O)NS(=O)(=O)c3cccc4nc(C)ccc34)CC2)c1	Maximum % activity (with co-corrector)	+++ (≥350)
O=C(NS(=O)(=O)c1cccc(OC(F)(F)F)c1)C1(c2ccc(Cl)cc2Cl)CC1	Maximum % activity (with co-corrector)	+ (<150)
COc1ccc(Br)cc1C1(C(=O)NS(=O)(=O)c2cccc3c2CCCN3)CC1	Maximum % activity (with co-corrector)	+++ (≥350)
Cc1ccc(C)c(C2(C(=O)NS(=O)(=O)c3cccc4ncccc34)CC2)c1	Maximum % activity (with co-corrector)	+++ (≥350)
Cc1ccc(S(=O)(=O)NC(=O)C2(c3cccc(Cl)c3)CC2)nc1	Maximum % activity (with co-corrector)	+ (<150)
COc1ccc(OC(C)C)cc1C1(C(=O)NS(=O)(=O)c2cccc3ncccc23)CC1	Maximum % activity (with co-corrector)	+++ (≥350)
Cc1cnc(OC(C)C)c(C2(C(=O)NS(=O)(=O)c3cccc4nc(N)ccc34)CC2)c1	Maximum % activity (with co-corrector)	+++ (≥350)
COc1ccc(OC2CCOC2)cc1C1(C(=O)NS(=O)(=O)c2cccc3ncccc23)CC1 (centres unmarked)	Maximum % activity (with co-corrector)	+++ (≥350)

Ask: Return reported Maximum % activity (with co-corrector); argument: COc1ccc(C(F)(F)F)cc1C1(C(=O)NS(=O)(=O)c2cccc3ncccc23)CC1
Result: +++ (≥350)
